The measurements presented in this section are drawn from the PolyMetriX glass transition set.

Catalogue of compounds with associated glass transition temperature

{"compound": "*CCN(*)C(=O)c1ccc(F)cc1F (repeat unit)", "glass transition temperature": "108.00 °C"}
{"compound": "*c1ccc(Oc2ccc(C(=O)c3ccc(Oc4ccc(-c5nc(-c6ccccn6)nnc5*)cc4)cc3)cc2)cc1 (repeat unit)", "glass transition temperature": "223.00 °C"}
{"compound": "*Oc1ccc(C(C)(C)c2ccc(OC(=O)CC(C)CCC(*)=O)cc2)cc1 (repeat unit)", "glass transition temperature": "56.00 °C"}
{"compound": "*CCN(CCOC(=O)c1ccc([Si](C)(C)c2ccc(C(=O)O*)cc2)cc1)c1ccc(/C=C/c2ccc([N+](=O)[O-])cc2)cc1 (repeat unit)", "glass transition temperature": "127.00 °C"}
